Attribute: ΔTm
molecular target: Protein polybromo-1 (Homo sapiens, UniProt Q86U86); test: Binding affinity to human PB1 isoform 3 expressed in BL21 (DE3)-R3-BirA cells assessed as change in melting temperature at 10 uM by sypro-orange dye-based differential scanning fluorimetric analysis; format: cell-based
Sequence (Q86U86 whole entry, canonical isoform): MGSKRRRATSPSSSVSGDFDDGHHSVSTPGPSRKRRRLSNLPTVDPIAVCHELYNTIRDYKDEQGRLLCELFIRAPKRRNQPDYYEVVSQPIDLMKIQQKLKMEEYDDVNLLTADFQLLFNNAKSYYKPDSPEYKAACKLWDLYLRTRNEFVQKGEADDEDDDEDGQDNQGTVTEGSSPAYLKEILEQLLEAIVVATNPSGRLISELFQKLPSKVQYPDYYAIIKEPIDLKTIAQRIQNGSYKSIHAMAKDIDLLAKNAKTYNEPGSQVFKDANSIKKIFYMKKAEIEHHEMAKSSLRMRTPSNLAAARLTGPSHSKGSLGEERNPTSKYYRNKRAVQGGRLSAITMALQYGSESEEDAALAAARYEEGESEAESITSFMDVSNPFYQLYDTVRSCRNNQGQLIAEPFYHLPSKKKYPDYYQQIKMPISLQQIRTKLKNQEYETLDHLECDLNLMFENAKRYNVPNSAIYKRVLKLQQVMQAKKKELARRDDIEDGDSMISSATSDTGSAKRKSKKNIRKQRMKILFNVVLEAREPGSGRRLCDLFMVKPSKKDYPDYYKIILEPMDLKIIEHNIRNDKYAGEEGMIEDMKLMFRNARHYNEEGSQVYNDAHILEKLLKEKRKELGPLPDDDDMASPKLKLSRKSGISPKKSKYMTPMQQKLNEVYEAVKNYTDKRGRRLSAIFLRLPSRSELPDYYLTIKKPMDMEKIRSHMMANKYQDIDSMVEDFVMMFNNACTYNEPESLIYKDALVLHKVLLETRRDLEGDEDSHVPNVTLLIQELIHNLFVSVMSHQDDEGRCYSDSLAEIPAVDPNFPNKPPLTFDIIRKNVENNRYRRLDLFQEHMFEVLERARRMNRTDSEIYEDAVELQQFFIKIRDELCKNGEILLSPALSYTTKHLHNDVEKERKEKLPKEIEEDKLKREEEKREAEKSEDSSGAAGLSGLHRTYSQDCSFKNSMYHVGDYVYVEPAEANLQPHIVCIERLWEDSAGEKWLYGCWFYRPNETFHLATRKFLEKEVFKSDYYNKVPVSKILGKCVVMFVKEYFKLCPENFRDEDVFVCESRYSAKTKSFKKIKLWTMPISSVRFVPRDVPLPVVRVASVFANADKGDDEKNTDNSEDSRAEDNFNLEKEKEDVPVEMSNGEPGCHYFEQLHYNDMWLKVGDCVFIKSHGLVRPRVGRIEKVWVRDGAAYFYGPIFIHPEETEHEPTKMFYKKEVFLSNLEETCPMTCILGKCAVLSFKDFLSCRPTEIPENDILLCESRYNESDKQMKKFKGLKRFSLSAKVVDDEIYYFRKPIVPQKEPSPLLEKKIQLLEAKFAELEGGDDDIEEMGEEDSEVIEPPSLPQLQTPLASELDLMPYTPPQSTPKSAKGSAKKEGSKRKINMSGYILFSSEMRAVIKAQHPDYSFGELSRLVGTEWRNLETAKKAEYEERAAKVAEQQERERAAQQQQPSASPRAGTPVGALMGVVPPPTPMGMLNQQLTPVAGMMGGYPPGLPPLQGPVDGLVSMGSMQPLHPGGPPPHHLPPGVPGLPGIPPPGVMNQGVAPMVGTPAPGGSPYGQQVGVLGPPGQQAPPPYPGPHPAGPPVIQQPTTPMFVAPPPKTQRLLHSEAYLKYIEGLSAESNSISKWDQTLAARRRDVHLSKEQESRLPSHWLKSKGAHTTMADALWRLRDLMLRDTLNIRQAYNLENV
Assay Endpoint: ΔTm (°C)

Smiles Text	Unit Label	Value Measured
COc1cccc(C(=O)/C=C/N2CCCC2)c1O	°C	0
O=C(/C=C/N1CCc2c(ncnc2NC2CC2)C1)c1ccccc1O	°C	3.5
CC(C)(C)OC(=O)N1CCN(/C=C/C(=O)c2ccccc2O)C2(CC2)C1	°C	0.9

====

Below, each of the molecules is paired with its reported ΔTm value.
molecular target: Protein polybromo-1 (Homo sapiens); test: Binding affinity to human PB1 isoform 4 expressed in BL21 (DE3)-R3-BirA cells assessed as change in melting temperature at 10 uM by sypro-orange dye-based differential scanning fluorimetric analysis; type: cell-based

Smiles Text	ΔTm
O=C(/C=C/N1CCc2c(ncnc2NC2CC2)C1)c1ccccc1O	2.4 °C
CN(C)c1ncnc2c1CCN(/C=C/C(=O)c1ccccc1O)C2	1.2 °C
O=C(/C=C/N1CC2CCC(CC2)C1)c1ccccc1O	2 °C
CC(C)(C)c1nc2c(n1CC1CC1)CCN(/C=C/C(=O)c1ccccc1O)C2	1.2 °C
O=C(/C=C/N1CCc2c(ncn2Cc2ccccc2)C1)c1ccccc1O	1.6 °C
O=C(/C=C/N1[C@H]2CC[C@@H]1c1ncnc(NC3CC3)c1C2)c1ccccc1O	2.1 °C
O=C(/C=C/N1CCc2cn[nH]c2C1)c1ccccc1O	1.2 °C
COc1cccc(C(=O)/C=C/N2CCCC2)c1O	0.3 °C
O=C(/C=C/N1CCc2c(ccnc2N[C@H]2CC[C@H](O)CC2)C1)c1ccccc1O	0.4 °C
